# method.notes: chemical genetic growth profiling, strain panel (AID 1159580);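 note: tested at 20 µM; growth read once vehicle control cultures reached saturation at 30 °C; 1 = growth at the plate median or of vehicle wells; lower values mean less growth of the strain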
# reported.conditions: S. cerevisiae deletion strains, growth OD, locus YNL224C, strain SQS1
Among all 5,500 compounds or so, about 2,000 (36%) were called active. Not shown: some 18% with an inconclusive outcome. Cut-off read from the data, not from the text of the source: active = normalized growth mostly below about 0.91 (no sharp cut-off); inconclusive = no clear call, values can overlap the other calls; inactive = mostly above about 0.92. This is one part of the list.
Give your call using only these classes: active, inactive

Here are 6 molecules together with their reported answers.
molecule	discrete.label
CC(C)[C@@H](CO)Nc1nc(Nc2cccc(Cl)c2)c2ncn(C(C)C)c2n1	inactive
N[C@@H](Cn1ccc(=O)[nH]c1=O)C(=O)O	inactive
CN1CCN(C2=Nc3cc(Cl)ccc3Nc3ccccc32)CC1	inactive
O=C(O)CC[N+](=O)[O-]	inactive
CCCn1cnc2c1c(=O)n(CCCCC(C)=O)c(=O)n2C	inactive
c1ccc2nc(C3=NCCN3)ccc2c1	inactive

Lab log entry: O=C(Nc1ccc([N+](=O)[O-])cc1Cl)c1cc(Cl)ccc1O — outcome as called in the assay? inactive

Also, COc1ccc(NC(=O)/C=C/c2ccc(Cl)cc2)cc1 please. inactive

Also, Oc1cc2c(cc1O)C(c1ccccc1)CNCC2 (stereo not drawn) please. inactive

Also, CC(NC(C)(C)C)C(=O)c1cccc(Cl)c1 (stereo not drawn) please. inactive

Also, NC1CCc2cc(O)c(O)cc2C1 (stereo not drawn) please. inactive

Also, CCn1c(=O)[nH]c2cc(Cl)c(Cl)cc21 please. inactive

* * *

# method.notes: chemical genetic growth profiling, strain panel (AID 1159580)
# reported.conditions: S. cerevisiae deletion strains, growth OD, locus YPL078C, strain atp4, active compounds read low
Hit rate of the full screen: of about 5,500 compounds, about 2,000 (36%) were called active. Inconclusive results (about 18%) are left out. The list shows a part of the results.
measurement.name: normalized growth
Give the figure by itself; no unit, no explanation.

Below: 8 compounds and their reported normalized growth.
compound	normalized growth
CC1(C)CC23C(=O)CCC(O)C2(C)CCC13 (stereo not given)	0.981
CC(C)[C@@H]1CC[C@@H](C)C[C@H]1OC(=O)c1ccccc1	0.999
CC12CCC(OC(=O)c3ccccc3)CC1CCc1ccccc12 (stereo not given)	1.01
COc1cc(Cc2cnc(N)nc2N)cc(OC)c1OC	1.01
O=C1c2ccccc2C(=O)c2ccccc21	0.96
O=C1c2cccc(O)c2C(=O)c2c(O)cccc21	0.897
COc1ccc(NS(=O)(=O)c2ccc(N)cc2)nn1	0.994
CC1=C(C(=O)O)N2C(=O)[C@@H](NC(=O)[C@@H](N)c3ccc(O)cc3)[C@H]2SC1	1.05

// normalized growth lookup, key: Cc1cc(O)c2c(c1)C(=O)c1cccc(O)c1C2=O 0.96

Also, O=c1c(O)c(-c2ccc(O)cc2)oc2ccccc12 please. 0.651

Also, O=C(O)c1cccnc1C(=O)O please. 1.05

* * *

# method.notes: chemical genetic growth profiling, strain panel (AID 1159580)
# reported.conditions: S. cerevisiae deletion strains, growth OD, locus YKL085W, strain MDH1
About 2,000 (36%) of roughly 5,500 compounds were called active. About 18% were inconclusive and are not listed. Rule as the data show it: active = normalized growth mostly below about 0.91 (no sharp cut-off); inconclusive = no clear call, values can overlap the other calls; inactive = mostly above about 0.92. Some of the results follow.
Give your call using only these classes: yes (1) (active), no (0) (inactive)

molecule	discrete.label
NC(=NCCCCCCN=C(N)N=C(N)Nc1ccc(Cl)cc1)N=C(N)Nc1ccc(Cl)cc1	yes (1)
O=C(O)CC[N+](=O)[O-]	no (0)

Lab log entry: CN1CCN(C2=Nc3cc(Cl)ccc3Nc3ccccc32)CC1 — outcome as called in the assay? no (0)

Also, CNC(=O)Oc1ccccc1OC(C)C please. no (0)

Also, O=C1c2ccccc2C(=O)c2ccccc21 please. no (0)

Also, COC(=O)C[C@H]1C(C)(C)[C@H](O)[C@@H]2CC3=C4CC(O)O[C@@H](c5ccoc5)[C@]4(C)CCC3[C@@]1(C)C2=O (stereo not given in full) please. no (0)

Also, CNC(C)(C)Cc1ccccc1 please. no (0)

Also, CCCN(CCC)c1c([N+](=O)[O-])cc(C(F)(F)F)cc1[N+](=O)[O-] please. no (0)

* * *

# method.notes: chemical genetic growth profiling, strain panel (AID 1159580)
# reported.conditions: S. cerevisiae deletion strains, growth OD, locus YFL029C, strain CAK1
The campaign covered roughly 5,500 compounds. About 2,000 (36%) were called active. About 18% were inconclusive and are not listed. No stated cut-off is given here; in the data, active means normalized growth mostly below about 0.91 (no sharp cut-off); inconclusive means no clear call, values can overlap the other calls; inactive means mostly above about 0.92. Some of the results follow.
Give your call using only these classes: active, inactive

Lab log entry: O=[N+]([O-])c1ccc(Sc2ccccc2)cc1O — outcome as called in the assay? inactive

Also, S=C(NCc1cccs1)Nc1cc(Cl)cc(Cl)c1 please. inactive

Also, Cc1ccc2nc3c(nc2c1)-c1ccccc1C3=O please. inactive

Also, O=C1C(NCc2ccccc2)=C(NCc2ccccc2)C(=O)c2ccccc21 please. inactive

Also, FC(F)(F)c1c2c(nc3cc(-c4ccco4)nn13)CCC2 please. inactive

Also, Cc1cc(C)c2cc(C(=O)NCCNc3ccc(C(F)(F)F)cn3)[nH]c2c1 please. inactive

* * *

# method.notes: chemical genetic growth profiling, strain panel (AID 1159580)
# reported.conditions: S. cerevisiae deletion strains, growth OD, locus YNL153C, strain GIM3, active compounds read low
About 2,000 (36%) of roughly 5,500 compounds were called active. Another 18% or so got no clear call; they are omitted. The list shows a part of the results.
measurement.name: normalized growth
Give the figure by itself; no unit, no explanation.

Below: 8 compounds and their reported normalized growth.
compound	normalized growth
COc1cc([C@@H]2c3cc4c(cc3[C@H](O)[C@H]3COC(=O)[C@H]23)OCO4)cc(OC)c1OC	1.03
COP(=O)(NC(C)=O)SC (configuration not stated)	1.02
CCCc1ccc(-c2nc(-c3ccc(C)cc3)no2)cc1	0.965
O=C(NNC(=S)Nc1cccc(Cl)c1)c1cccnc1	0.979
COc1cc([C@@H]2c3cc4c(cc3[C@H](O)C3COC(=O)[C@@H]32)OCO4)cc(OC)c1OC (some centres not stated)	1.04
N=C(N)SCc1c(F)cccc1Cl	1.01
COc1ccc(-c2c(OC)c3c(OC)c4c(cc3oc2=O)OC(C)(C)C=C4)cc1	1.01
O=C(NNC(=S)NC1CC2C=CC1C2)c1cccnc1 (configuration not stated)	0.993

// normalized growth lookup, key: C[N+](C)(C)CC#CCOC(=O)Nc1cccc(Cl)c1 0.998

* * *

# method.notes: chemical genetic growth profiling, strain panel (AID 1159580);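 note: tested at 20 µM; growth read once vehicle control cultures reached saturation at 30 °C; 1 = growth at the plate median or of vehicle wells; lower values mean less growth of the strain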
# reported.conditions: S. cerevisiae deletion strains, growth OD, locus YJR066W, strain TOR1, active compounds read low
Screen size: about 5,500 compounds; about 2,000 (36%) were called active. Not shown: some 18% with an inconclusive outcome. Some of the results follow.
measurement.name: normalized growth

compound	result
O[C@H]1[C@H](O)[C@@H](O)C2OC[C@H]1O2	0.919 (inactive)

// normalized growth lookup, key: CC(NC(C)(C)C)C(=O)c1cccc(Cl)c1 (stereo not drawn) 0.969 (inactive)

Also, CC(C)OC(=O)Nc1cccc(Cl)c1 please. 0.937 (inactive)

Also, CC(C)OC(=O)Nc1cc(Cl)cc(Cl)c1 please. 0.99 (inactive)

Also, CC(C)C1CCC(C(=O)N[C@@H](Cc2ccccc2)C(=O)O)CC1 (stereo partly drawn) please. 0.956 (inactive)

Also, COC(=O)c1cc([N+](=O)[O-])ccc1S(=O)(=O)Cc1ccc(Cl)cc1 please. 0.965 (inactive)

Also, CCCc1ncc(C[n+]2ccccc2C)c(N)n1 please. 0.993 (inactive)

Also, CCCCCC/C=C\CCCCCCCc1cccc(O)c1C(=O)O please. 0.968 (inactive)

Also, FC(F)(F)c1c2c(nc3cc(-c4ccco4)nn13)CCC2 please. 0.833 (inactive)

Also, Cc1ccc(O)c(C(CCN(C(C)C)C(C)C)c2ccccc2)c1 (stereo not drawn) please. 0.958 (inactive)

* * *

Here the recorded normalized growth is given for each entry.
# method.notes: chemical genetic growth profiling, strain panel (AID 1159580);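 note: tested at 20 µM; growth read once vehicle control cultures reached saturation at 30 °C; 1 = growth at the plate median or of vehicle wells; lower values mean less growth of the strain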
# reported.conditions: S. cerevisiae deletion strains, growth OD, locus YKR091W, strain srl3, active compounds read low
The whole screen tested about 5,500 compounds, of which about 2,000 (36%) were called active. Roughly 18% stayed inconclusive and do not appear here. The list shows a part of the results.
Give the figure by itself; no unit, no explanation.

Below: 2 compounds and their reported normalized growth.
compound	normalized growth
O=C(c1ccccc1)c1ccc2n1CCC2C(=O)O (stereo not drawn)	0.961
O=C(O)CCC(=O)OC[C@@H](NC(=O)C(Cl)Cl)[C@H](O)c1ccc([N+](=O)[O-])cc1	0.971

Moving on to the next compound.
// normalized growth lookup, key: CC(NC(C)(C)C)C(=O)c1cccc(Cl)c1 (stereo not drawn) 0.998

* * *

# method.notes: chemical genetic growth profiling, strain panel (AID 1159580);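 note: tested at 20 µM; growth read once vehicle control cultures reached saturation at 30 °C; 1 = growth at the plate median or of vehicle wells; lower values mean less growth of the strain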
# reported.conditions: S. cerevisiae deletion strains, growth OD, locus YNL006W, strain LST8, active compounds read low
About 2,000 (36%) of roughly 5,500 compounds were called active. About 18% were inconclusive and are not listed. The list shows a part of the results.
measurement.name: normalized growth
Give the figure by itself; no unit, no explanation.

Below: 9 compounds and their reported normalized growth.
compound	normalized growth
O=C(NCc1ccc2c(c1)OCO2)c1cc2ccccc2s1	0.849
CCOC(=O)c1ccc(N=Cc2cc(Cl)cc(Cl)c2O)cc1	0.952
CC(C)(C)c1ccc(-c2cc(NC(=O)c3ccc(Cl)cc3)n[nH]2)cc1	0.999
COc1cc(C2CC(=S)Nc3ccccc3S2)cc(OC)c1OC (stereo not given)	0.994
COC(=O)c1cccc(NS(=O)(=O)c2ccc(Cl)c(Cl)c2)c1	0.978
Cc1cc(N=Cc2cc(Cl)cc(Cl)c2O)no1	0.969
O=S(=O)(Nc1c(F)cccc1F)c1ccc(Cl)c(Cl)c1	0.941
COc1ccc(Oc2ccc([N+](=O)[O-])cc2C(=O)O/N=C(/N)c2ccc(C(F)(F)F)cc2)cc1	1
Cc1cc(C)c2cc(C(=O)NCCNc3ccc(C(F)(F)F)cn3)[nH]c2c1	0.986

// normalized growth lookup, key: Cc1cc(Sc2c([N+](=O)[O-])cc(C(F)(F)F)cc2[N+](=O)[O-])c(Cl)cc1Cl 1
